Here the recorded BUN is given for each entry.
- ASSAY_NOTES: Tolerability in CD1 mice: kidney function (Example 43)
- Format: in vivo
- STUDY_CONDITIONS: 50 mg/kg s.c. twice per week for 6 weeks, plasma
Strand notation (5' to 3'): a small letter for the sugar, then the base; units joined by * are phosphorothioate-linked, units joined directly phosphodiester-linked; [ ] holds rarer units or linkages, { } end groups; capitals alone tell only the bases. e = 2'-O-(2-methoxyethyl) (MOE); [5mC] = 5-methylcytosine; d = 2'-deoxy (DNA)
QUANTITY_KIND: BUN (mg/dL)

>>> measured("ISIS 449707: 3-8-3, 4-8-4, 2-10-2, 3-10-3 or 4-10-4 MOE microwalk gapmer (Table 46) (antisense e[5mC]*eA*e[5mC]*eA*dG*dT*dT*dT*d[5mC]*dT*dG*dG*e[5mC]*eA*eG*eG)")
27
>>> measured("ISIS 449709: 3-8-3, 4-8-4, 2-10-2, 3-10-3 or 4-10-4 MOE microwalk gapmer (Table 46) (antisense eG*e[5mC]*eA*e[5mC]*dA*dG*dT*dT*dT*d[5mC]*dT*dG*dG*d[5mC]*eA*eG*eG*e[5mC])")
34

* * *

Listing of recorded basophils by entry.
- ASSAY_NOTES: Hematology assays in cynomolgus monkeys (Example 45)
- Format: in vivo
- STUDY_CONDITIONS: day 78
QUANTITY_KIND: basophils

>>> measured("ISIS 416858: MOE gapmer, nucleobases 1275 to 1318 of SEQ ID NO: 1 (Table 8) (antisense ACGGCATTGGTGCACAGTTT; MOE gapmer, wing and gap sizes not given here)")
"0.4%"
>>> measured("ISIS 417002: MOE gapmer, nucleobases 1275 to 1318 of SEQ ID NO: 1 (Table 8) (antisense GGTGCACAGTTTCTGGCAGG; MOE gapmer, wing and gap sizes not given here)")
"0.3%"
>>> measured("ISIS 416850: MOE gapmer, nucleobases 1275 to 1318 of SEQ ID NO: 1 (Table 8) (antisense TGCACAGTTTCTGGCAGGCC; MOE gapmer, wing and gap sizes not given here)")
"0.3%"
>>> measured("ISIS 416864: MOE gapmer, nucleobases 1275 to 1318 of SEQ ID NO: 1 (Table 8) (antisense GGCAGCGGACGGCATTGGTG; MOE gapmer, wing and gap sizes not given here)")
"0.3%"
>>> measured("ISIS 416838: MOE gapmer, nucleobases 1018 to 1042 of SEQ ID NO: 1 (Table 6) (antisense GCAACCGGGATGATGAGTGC; MOE gapmer, wing and gap sizes not given here)")
"0.4%"

* * *

- ASSAY_NOTES: Tolerability in Sprague-Dawley rats: kidney function, urine protein/creatinine (Example 35)
- STUDY_CONDITIONS: Sprague Dawley rats; Before antisense oligonucleotide treatment
QUANTITY_KIND: Urine protein/creatinine ratio

>>> measured("416850 (antisense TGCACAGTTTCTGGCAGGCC; 5-10-5 gapmer, further chemistry not given here) [compound 416850]")
1.0
>>> measured("416925 (antisense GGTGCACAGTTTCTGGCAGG; 3-14-3 gapmer chemistry, further chemistry not given here) [compound 416925]")
1.0
>>> measured("417003 (antisense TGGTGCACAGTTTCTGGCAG; 2-13-5 gapmer chemistry, further chemistry not given here) [compound 417003]")
0.9
>>> measured("416999 (antisense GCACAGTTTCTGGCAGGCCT; 2-13-5 gapmer chemistry, further chemistry not given here) [compound 416999]")
1.3
>>> measured("416826 (antisense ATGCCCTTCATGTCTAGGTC; 5-10-5 gapmer, further chemistry not given here) [compound 416826]")
1.0
